Reference for the values: patent US20140073639A1

Test system: S. MRSA
Run description: microbe, parasite or virus in culture
Assay type: cell-based
Assay context: Staphylococcus aureus, MRSA, 3 μM; read-out: S. MRSA 3 μM (growth inhibition)
Property measured: inhibition at 3 µM (%)

• O=C(O)[C@H](Cc1ccccc1)N1C(=O)/C(=C\c2ccc(-c3cc(C(F)(F)F)ccc3Cl)o2)NC1=S = -4.72
• O=C1NC(=S)N(c2cccc(Cl)c2)C(=O)/C1=C/c1ccc(-c2cc(C(=O)O)ccc2Cl)o1 = -2.21
• O=C(O)[C@@H](Cc1ccccc1)N1C(=O)/C(=C\c2ccc(-c3ccc(Cl)c(Cl)c3)o2)NC1=S = -13.8
• O=C1NC(=S)N(c2ccc(Cl)cc2)C(=O)/C1=C/c1ccc(-c2ccccc2C(=O)O)o1 = 1.47
• CCOc1cccc(N2C(=O)/C(=C/c3ccc(-c4cc(C(=O)O)ccc4Cl)o3)C(=O)NC2=S)c1 = 0.74
• O=C(O)C(Cc1ccccc1)N1C(=O)/C(=C\c2ccc(Cl)c(Cl)c2)NC1=S (centres unmarked) = -0.86
• CCC(C(=O)NS(C)(=O)=O)N1C(=O)/C(=C\c2ccc(-c3ccc(Cl)c(Cl)c3)o2)NC1=S (centres unmarked) = 1.71
• CCN1C(=O)NC(=O)/C(=C\c2ccc(-c3ccc(Cl)c(C(=O)O)c3)o2)C1=O = 1.47
• O=C(O)C(Cc1ccccc1)N1C(=O)/C(=C\c2ccc(-c3ccc(Br)cc3)o2)NC1=S (centres unmarked) = -9.55
• O=C1NC(=S)NC(=O)C1=Cc1ccc(-c2cccc(C(=O)O)c2)o1 = -0.74
• O=C(O)C(Cc1ccccc1)N1C(=O)/C(=C\c2ccc(-c3ncc(Cl)cc3Cl)o2)NC1=S (centres unmarked) = -2.17
• O=C(O)CC(C(=O)O)N1C(=O)/C(=C2/C(=O)Nc3ccc(Br)cc32)SC1=S (centres unmarked) = -6.99
• O=C1NC(=S)NC(=O)C1=Cc1ccc(Br)cc1 = 13.6
• O=C1NC(=O)C(=Cc2ccc(Br)o2)C(=O)N1 = -1.4
• COc1ccc(-c2ccc(/C=C3/NC(=S)N([C@@H](Cc4ccccc4)C(=O)O)C3=O)o2)cc1Cl = -7.99
• O=C1Nc2cc(Cl)c(Br)cc2/C1=C1/NC(=S)N(C(Cc2ccccc2)C(=O)O)C1=O (centres unmarked) = -11.9
• Cc1oc(=O)oc1COC(=O)C(Cc1ccccc1)N1C(=O)/C(=C\c2ccc(-c3ccc(Cl)c(Cl)c3)o2)NC1=S (centres unmarked) = 0.71
• O=C(O)C(Cc1ccccc1)N1C(=O)/C(=C\c2ccc(-c3ccc(Cl)c(Cl)c3)s2)NC1=S (centres unmarked) = -14.6
• O=C(O)[C@H](Cc1ccccc1)N1C(=O)/C(=C\c2ccc(-c3cc(Cl)cc(Cl)c3)o2)NC1=S = -0.61
• O=C(O)C(Cc1ccccc1)N1C(=O)/C(=C\c2ccc(-c3ccnc(Cl)c3)o2)NC1=S (centres unmarked) = -0.84
• N#CNC(=O)C(Cc1ccccc1)N1C(=O)/C(=C\c2ccc(-c3ccc(Cl)c(Cl)c3)o2)NC1=S (centres unmarked) = 0.03
• O=C(O)[C@H](Cc1ccccc1)N1C(=O)/C(=C\c2ccc(-c3ccc(Cl)c(Cl)c3)o2)NC1=S = -16.1
• CC(=O)C(Cc1ccccc1)N1C(=O)/C(=C2/C(=O)Nc3cc(Cl)c(Cl)cc32)NC1=S (centres unmarked) = -7.73
• O=C([O-])C(Cc1ccccc1)N1C(=O)/C(=C\c2ccc(-c3cccc(Cl)c3)o2)NC1=S.[Na+] (centres unmarked) = 0.37
• N#CNC(=O)C(Cc1ccccc1)N1C(=O)/C(=C\c2ccc(-c3cccc(Cl)c3)o2)NC1=S (centres unmarked) = -0.24
• O=C(O)C(Cc1ccccc1)N1C(=O)/C(=C\c2ccc(-c3ccc(I)cc3)o2)NC1=S (centres unmarked) = -1.84
• CCC(C(=O)O)N1C(=O)/C(=C\c2ccc(-c3ccc(Cl)c(Cl)c3)o2)NC1=S (centres unmarked) = -2.47
• O=C(O)C(Cc1ccccc1)N1C(=O)/C(=C\c2ccc(-c3ccc(Cl)cc3)s2)NC1=S (centres unmarked) = -2.94
• O=C(O)C(Cc1ccccc1)N1C(=O)/C(=C\c2ccc(-c3ccc(OC(F)(F)F)cc3)o2)NC1=S (centres unmarked) = -1.32
• COc1ccc(-c2ccc(/C=C3/NC(=S)N(C(Cc4ccccc4)C(=O)O)C3=O)s2)cc1 (centres unmarked) = -2.94
• NC(=O)C(Cc1ccccc1)N1C(=O)/C(=C\c2ccc(-c3ccc(Cl)c(Cl)c3)o2)NC1=S (centres unmarked) = 2.03
• CN1C(=O)C(Cc2ccc(-c3ccc(Cl)c(Cl)c3)o2)C(=O)N(C)C1=O = -8.09
